B1: PhoQ; a variant is named by its letters at X, in order, P23837 (parent)
chain: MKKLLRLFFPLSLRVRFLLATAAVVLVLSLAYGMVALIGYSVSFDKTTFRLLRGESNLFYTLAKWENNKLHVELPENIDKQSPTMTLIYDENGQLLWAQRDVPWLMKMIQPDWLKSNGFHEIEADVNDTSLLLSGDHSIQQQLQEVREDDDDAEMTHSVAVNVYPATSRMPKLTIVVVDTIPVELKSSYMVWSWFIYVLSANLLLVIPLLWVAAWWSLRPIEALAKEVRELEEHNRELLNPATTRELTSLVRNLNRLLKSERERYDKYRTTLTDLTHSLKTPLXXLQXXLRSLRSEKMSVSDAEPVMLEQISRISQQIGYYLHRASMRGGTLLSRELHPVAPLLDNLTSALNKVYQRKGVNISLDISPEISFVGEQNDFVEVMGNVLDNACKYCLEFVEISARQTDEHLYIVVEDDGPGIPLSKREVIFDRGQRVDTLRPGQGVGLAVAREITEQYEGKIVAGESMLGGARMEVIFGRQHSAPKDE

- Variants of: B1
- Assay Method Text: enrichment ratio after two sorts for PhoP signalling (ratio (wild type AVST 3.29)); higher = more functional
- Condition Info: with PhoP (E. coli)
Over roughly 140,000 sequences, “enrichment ratio after two sorts for PhoP signalling” has its median near 0; the highest 2% begin near 11. The full list was thinned out, with the highest values kept by preference.
Property Label: enrichment ratio

Batch request: enrichment ratio for each of the following variants.
1. WQTY
2. STPE
3. TSAQ
4. PTPW
5. HREC

≤ 0.25
≤ 0.25
19.6
≤ 0.25
≤ 0.25

Numbers sourced from a collection of fitness landscapes (doi:10.1126/science.1257360).
